Tested on: OVCAR-4 ovarian
testDescription: NCI tumour cell line growth inhibition, 48 h
parameter: TGI

Known TGI results, listed for orientation:
molecule: CCN1c2ccccc2C(C(SC)S(=O)(=O)c2ccc(C)cc2)c2c1[nH]c(=O)n(C)c2=O (stereo not drawn)
TGI: > 100 µM

molecule: O=C1NCC2(CCN(CCCC3(c4ccc(F)cc4)OCCO3)CC2)N1c1ccccc1
TGI: > 100 µM

molecule: COc1cc(OC)cc(-c2cc(=O)c3c(OC)c(OC)c(OC)c(OC)c3o2)c1
TGI: > 100 µM

molecule: CCOC(=O)CC(=O)ON(C)C(C)=O
TGI: > 100 µM

molecule: N#Cc1c(-c2ccccc2)/c(=C\Nc2ccc(F)cc2)c(=O)n2c1nc1ccccc12
TGI: > 100 µM

-- ask # query: TGI | item C#CC1(O)CCC2C3CCc4cc(Oc5nc(F)nc(-c6c7ccccc7c7sc8ccccc8n67)n5)ccc4C3CC[C@@]21C (stereo partly drawn) | system: OVCAR-4 ovarian
-- reply > 100 µM

-- ask Another molecule to check: "Cc1cc(I)cc(CN(C)CCCN2CCCCC2)c1O"
-- reply > 100 µM

-- ask Try the molecule "Cn1cnc([N+](=O)[O-])c1S(=O)(=O)Oc1cccc2ccccc12"
-- reply 5.96 µM

-- ask Next: O=C(O)CCC(=O)OC1N=C(c2ccccc2Cl)c2cc([N+](=O)[O-])ccc2NC1=O (stereo not drawn)
-- reply > 100 µM

-- ask Please answer likewise for CSc1nc(NC2OCC(OC(C)=O)C(OC(C)=O)C2OC(C)=O)c(N=CC=Nc2c(NC3OCC(OC(C)=O)C(OC(C)=O)C3OC(C)=O)nc(SC)[nH]c2=O)c(=O)[nH]1 (stereo not drawn)
-- reply > 100 µM

-- ask Queued: COC(=O)C1CCC(=O)N1C(c1ccc(OC)cc1)c1ccc2c(c1)OCO2 (stereo not drawn)
-- reply > 100 µM

-- ask Cool, now "CCOC(=O)c1nc2c(nc1C(=O)OCC)C(=O)c1ccccc1C2=O"
-- reply 1.95 µM

-- ask Same read-out for "CC(C)OP(=O)(OC(C)C)C(=NCCN=C(NNc1ccc([N+](=O)[O-])cc1)P(=O)(OC(C)C)OC(C)C)NNc1ccc([N+](=O)[O-])cc1" ?
-- reply > 100 µM

-- ask Next molecule: "CC(=N/N=C/c1ccccn1)/C(C)=N/N=C(C)/C(C)=N/N=C(C)/C(C)=N/N=C(C)/C(C)=N\N=C\c1ccccn1"
-- reply > 100 µM

-- ask Same question, "CCN(CC)CCN(C(=Nc1ccccc1)N1CCOCC1)c1ccccc1" this time
-- reply > 100 µM

-- ask Now try "Cc1ccc(S(=O)(=O)N/N=C/C2(c3ccccc3)c3ccccc3-c3ccccc32)cc1" .
-- reply 24.3 µM

-- ask Item: "CCCSCC(P(=O)(O)O)P(=O)(O)O"
-- reply > 100 µM

-- ask Please answer likewise for "Cc1cc(N(CCOS(C)(=O)=O)CCOS(C)(=O)=O)ccc1C=O"
-- reply 45.3 µM

-- ask Param item: "CCCCC(C(=O)NCCNC(=O)CCC(=O)N(C)O)C(=O)NCCNC(=O)CCC(=O)N(C)O"
-- reply > 100 µM

-- ask // repeat for "OCCc1ccsc1-c1sc(-c2cc(CCO)c(-c3sccc3CCO)s2)cc1CCO" and report
-- reply 34 µM

-- ask Lookup CCCCCCCCC/C=C1\CCC(CN2CCOCC2)C1=O (stereo not drawn)
-- reply 12 µM

-- ask Also "COc1ccc(C2=N/C(=C\c3ccccc3)C(=O)O2)cc1" ?
-- reply > 100 µM

-- ask Same again, this time with OC(c1nc2ccccc2[nH]1)C(O)C(O)C(O)c1nc2ccccc2[nH]1 (stereo not drawn)
-- reply > 100 µM
